test system: SK-MEL-28 melanoma; assay: NCI-60 one-dose screen, 48 h (100 = growth as untreated, 0 = no growth, -100 = all killed); conditions: 10 µM unless noted
Compounds without any hit were thinned out: in the full panel of roughly 83,000, 20% have a hit.
metricName: growth (%)
Answers are plain numbers, in %.

Use these answered entries as a reference point.
COc1ccc2[nH]c(=O)c(/C=C/C(=O)c3ccc(Nc4nccc(-c5ccc6ccccc6c5)n4)cc3)cc2c1 :: 108
CCOC(=O)CC(=O)c1c(C)cc(C)cc1C :: 118
COc1cccc(NC(=O)c2sc3nc4c(cc3c2N)CN(Cc2ccccc2)CC4)c1 :: 76.8

Please state, for each entry, its recorded growth.
1. CCOC(=O)c1nc(Nc2cc(C)[nH]n2)c2ccccc2n1
2. NS(=O)(=O)N(c1cc(C(F)(F)F)cc(C(F)(F)F)c1)C1CCN(Cc2ccc(F)cc2)CC1
3. CC/C(=C(\c1ccc(O)cc1)c1ccc(OCCN(C)CCN(C)C(=O)CCCCC(=O)c2c(C)[nH]c(/C=C3\N=C(c4ccc[nH]4)C=C3OC)c2C)cc1)c1ccccc1
4. CCCCCCCCCCCCCCCC(=O)OCC1OC(n2cnc3c(=S)nc(N)[nH]c32)C(OC(=O)CCCCCCCCCCCCCCC)C1OC(=O)CCCCCCCCCCCCCCC (stereo not drawn)
5. COC(=S)SCN(CSC(=S)OC)c1ccc(Cl)cc1

Response:
93.2
82.1
89.7
130
102

Please state, for each entry, its recorded growth.
1. O=C(O)C(O)C(O)C(=O)O.[NH-]C1CCCCC1[NH-].[Pt+2] (stereo not drawn)
2. O=C(O)c1cn(C2CC2)c2cc(N3CCN(Cc4nc5c(cnn5-c5ccc([N+](=O)[O-])cc5)c(=O)[nH]4)CC3)c(F)cc2c1=O
3. CC(C)C1=C[C@@]23CC[C@@H]4[C@](C)(CCC[C@@]4(C)C(=O)OCC#CCN4CCCC4)[C@H]2C[C@@H]1[C@H]1C(=O)OC(=O)[C@H]13
4. CC(=O)OCC1OC(OC2=C(CC=C(Cl)Cl)C(=O)c3ccccc3C2=O)C(OC(C)=O)C(OC(C)=O)C1OC(C)=O (stereo not drawn)
5. C=C1C(=O)O[C@H]2[C@H]1CC/C(Cn1cc(Cc3c[nH]c4ccccc34)nn1)=C\CC[C@@]1(C)O[C@@H]21

Response:
[95.1, 106, 101, 91.4, 20]

* * *

test system: NCI/ADR-RES ovarian; test: NCI-60 one-dose screen, 48 h (100 = growth as untreated, 0 = no growth, -100 = all killed); details: 10 µM unless noted
About 83,000 compounds went through this panel and 20% of them were active in at least one assay; those are over-represented in the sample as a whole.
I'd be grateful if you could share measured growth for these entries.
One number for each entry, in %.

Use these answered entries as a reference point.
C=C1C(=O)O[C@H]2[C@H]1CC/C(Cn1cc(Cn3ccc4cc(Cl)ccc43)nn1)=C\CC[C@@]1(C)O[C@@H]21 :: 50.6
C=C1CCC2C3(C)COC(c4ccccc4Br)OC3CCC2(C)C1C/C=C1/C(=O)OCC1OC(C)=O (stereo not given) :: -3.45
O=C1C2CC=CCC2C(=O)N1CNc1ccc(Cl)cc1 (stereo not given) :: 95.2
O=c1[nH]c(-c2ccccn2)nc2sc3c(c12)CCCCC3 :: 15.1
Oc1cccc(Nc2nccc(-c3ccc4ccccc4c3)n2)c1 :: 19.9

Please state, for each entry, its recorded growth.
1. O=c1c2c3c(sc2n2c(CCl)nnc2n1Cc1ccccc1)CCCC3
2. CN1CCOCCOCCOc2ccccc2NC(=O)c2nc(cnc2N)-c2ccc(cc2)S1(=O)=O
3. COCCOC(=O)C1=C(C)NC(=S)NC1c1ccc2c(c1)OCO2 (stereo not given)

Response:
[19, 43.5, 103]

Please state, for each entry, its recorded growth.
1. CCCCCCCCCCCCCCCCCCNC(=O)[C@H]1CSC(c2ccc(OC)c(F)c2)N1 (stereo not given in full)
2. CC/C(=C(\c1ccccc1)c1ccc(OCCNC)cc1)c1ccccc1

Response:
-36.8
-87.3

Please state, for each entry, its recorded growth.
1. CCOC(=O)c1cnc2cc(Cl)c(F)cc2c1Nc1cccc(NS(C)(=O)=O)c1
2. CS(=O)(=O)c1ccc(-c2cnc3ccc(-c4cccc(S(C)(=O)=O)c4)nn23)cc1
3. CCCCCC(=O)Oc1ccc(/C(=C(\C)c2ccccc2)c2ccc(OCCN(CC)CC)cc2)cc1
4. CCOC(=O)C(=Cc1ccccc1F)C(=O)OCC
5. O=C(COCc1c(-c2ccccc2)no[n+]1[O-])Nc1ccc(C(=O)/C=C/c2ccc3c(c2)OCO3)cc1
6. CCN(CC)CCCC(C)Nc1ccnc2c(OC)cccc12 (stereo not given)
7. O=C(O)c1ccccc1Nc1cccc(S(F)(F)(F)(F)F)c1
8. Cc1nn(-c2ccccc2)c2nc(C)n(-c3ccc(Br)cc3)c(=O)c12

Response:
1: 81; 2: 80.9; 3: 74.2; 4: 100; 5: 106; 6: 110; 7: 106; 8: 3.19

Please state, for each entry, its recorded growth.
1. COc1ccc(-c2cc(-c3cccnc3)nc3sc4c(=O)n(-c5ccc(C)cc5)nnc4c23)cc1OC
2. CCOC(=O)c1c2c(n3ccc(NC(=O)CCN4CCOCC4)cc13)C(=O)c1ncccc1C2=O
3. COc1ccc(C2Nc3ccccc3-n3cccc32)cc1 (stereo not given)

Response:
102
40.5
89.9
